tested on: Mycobacterium tuberculosis variant bovis BCG; assay: microbe, parasite or virus in culture; type: functional
Below is a list of entries, each paired with its recorded MIC90 value.
Kindly answer with a numeric value in µM, unit omitted.

Worked examples follow.
| compound | MIC90, µM |
| --- | --- |
| COc1ccc(-c2ccc(Nc3cccc(S(=O)(=O)CCN(C)CCc4ccccn4)c3)nc2)cn1 | 7.3 |
| O=C(Nc1ccccc1-c1nc(Cl)cs1)OCCC1CCCCN1 (stereo unspecified) | 0.2 |
| Cc1cc(C)n(-c2nc(O)cc(-c3ccccc3)n2)n1 | 2 |
| Brc1ccc2cc(C3=NCCCO3)[nH]c2c1 | 7.1 |
| O=C(COc1ccc(Br)cc1Cl)Nc1nc(-c2ccccn2)cs1 | 4.6 |
| Cc1onc(-c2ccccc2)c1C(=O)Nc1nc(-c2ccccn2)cs1 | 4.3 |
| O=C(NNC(=O)c1ccc([N+](=O)[O-])o1)c1ccc2ccccc2c1 | 7.2 |
| CCOc1cc(CC)c(Br)cc1C(=O)Nc1cccc2c1CCN(C)C2 | 4.6 |
| Clc1cc(N2CCN(c3ccncc3)CC2)ncn1 | 5.1 |
| NC(=O)C(N)Cc1c[nH]c2ccc(F)cc12 (stereo unspecified) | 2.3 |

# evaluate next
Lookup: # lookup: MIC90 of COCCN1CCN(c2ccnc(-n3cnc4cc(C)c(C)cc43)n2)CC1
Found: 0.8

====

Below is a list of entries, each paired with its recorded MIC90 value.
system: Mycobacterium tuberculosis variant bovis BCG; experiment: microbe, parasite or virus in culture; type: functional
Kindly answer with a numeric value in µM, unit omitted.

| compound | MIC90 (µM) |
| --- | --- |
| Clc1cc(N2CCNCC2)cc(Cl)c1OCc1ccccc1 | 2.2 |
| C=CCNCCS(=O)(=O)c1cccc(Nc2ncc(-c3cccc(F)c3)cn2)c1 | 9.6 |
| O=C(Nc1nc(-c2ccccn2)cs1)c1ccc2c(c1)OCO2 | 3 |
| O=C(Nc1nc(-c2ccccn2)cs1)c1cc2ccccc2o1 | 7 |
| O=C(Nc1nc(-c2ccccn2)cs1)C1(c2ccc(Cl)cc2)CC1 | 3.3 |
| Cc1ccc2nc(C(F)(F)F)c(C(=O)NCc3cccs3)n2c1 | 1.2 |

Lookup: # lookup: MIC90 of COc1ccc(-n2ncc3c(N4CCNCC4)nc(C4CC4)nc32)cc1
Found: 5.6

Lookup: # lookup: MIC90 of Cc1cc(Br)ccc1-c1ccc(CNCC(C)O)o1 (stereo not drawn)
Found: 9.9

Lookup: # lookup: MIC90 of Nc1nc(SCc2cccc(F)c2F)nc2[nH]c(=O)cnc12
Found: 4.4

====

tested on: Mycobacterium tuberculosis variant bovis BCG; assay: microbe, parasite or virus in culture; assay type: functional
// NB: equality with 6 µM counts as Condition not met; only MIC90 strictly below is Condition met

Solved entries:
| compound | category |
| --- | --- |
| Br.CCc1ccccc1OCCCON1C(=N)N=C(N)NC1(C)C | Condition met |
| CCCOc1c(Br)cc(CNCC)cc1OCC | Condition not met |
| O=C(Nc1nc(-c2ccccn2)cs1)c1cccc(Oc2ccccc2)c1 | Condition met |
| C=CCNCCS(=O)(=O)c1cccc(Nc2ccc(-c3cccc(F)c3)cn2)c1 | Condition met |
| COc1ccc(CCC(=O)Nc2ccccc2Nc2ccc(OC)cc2)cc1 | Condition met |

Lookup: Problem: For the compound C[C@H]1CN(Cc2cccc(-c3cc(CNC(=O)c4ccc(CC5CCNCC5)cc4)ccc3F)c2)CCN1 , is MIC90 under 6 µM?
Found: Condition met

Lookup: Problem: For the compound COc1cc2c(cc1OC)C(c1ccccc1)N(C(=O)c1nn(C)c(=O)c3ccccc13)CC2 (stereo unspecified) , is MIC90 under 6 µM?
Found: Condition not met

Lookup: Problem: For the compound CCCCC1=NN(C(=O)c2ccncc2)C(O)(C(F)(F)F)C1 (stereo unspecified) , is MIC90 under 6 µM?
Found: Condition met

====

system: Mycobacterium tuberculosis variant bovis BCG; assay: microbe, parasite or virus in culture; type: functional
attribute measured: log10 of MIC90 (log10 of the value in µM)
Recall that a logarithmic scale is used here: each number is log10 of MIC90 in µM.

| molecule | log10 of MIC90 |
| --- | --- |
| CCOc1ccc(-n2nc3c(C)nnc(NCc4ccccc4)c3c2C)cc1 | 0.68 |
| CC1=Nc2ccccc2CN1CC(O)c1cc(Br)cs1 (stereo unspecified) | 0.92 |
| CN(C)c1ccc(NC(=O)Nc2ccccc2C(F)(F)F)cc1 | 0.81 |
| O=C(NC(=Cc1ccc(-c2cccc(C(F)(F)F)c2)o1)C(=O)N1CCOCC1)c1ccccc1 | 0.83 |
| COc1ccc(CNC(=O)c2cnn3c2NC(c2ccc(OC)cc2)CC3C(F)(F)F)cc1 (stereo unspecified) | 0.96 |
| Cc1ccc(-c2nnc(NC(=O)c3ccc(F)cc3)o2)cc1C | 0.36 |

Lookup: # lookup: log10 of MIC90 of O=C(Nc1nnc(-c2cc(Cl)ccc2Cl)o1)c1ccc(Br)s1
Found: 0.95

Lookup: # lookup: log10 of MIC90 of CCCCc1cc(OC)c(C(=O)Nc2cccc3c2CCN(C)C3)cc1Cl
Found: 0.81

Lookup: # lookup: log10 of MIC90 of CC(=O)NCCn1c(Sc2ccnc(N3CCN(c4ccncc4)CC3)n2)nnc1-c1ccco1
Found: 0.41

Lookup: # lookup: log10 of MIC90 of Cc1noc(C)c1COc1ccc(C(=O)N2CCCCC2c2nc3ccccc3s2)cc1 (stereo unspecified)
Found: 0.81

Lookup: # lookup: log10 of MIC90 of N=C(Nc1nc(-c2ccccn2)cc2ccccc12)c1cccc(Cl)c1
Found: -0.22

====

tested on: Mycobacterium tuberculosis variant bovis BCG; assay: microbe, parasite or virus in culture; format: functional
// NB: equality with 5 µM counts as false; only MIC90 strictly below is true

Lookup: Problem: For the compound CCOc1ccc(C(=O)Nc2ccc3c(c2)C(C)N(C)CC3)cc1Br (stereo unspecified) , is MIC90 under 5 µM?
Found: true

====

system: Mycobacterium tuberculosis variant bovis BCG; test: microbe, parasite or virus in culture; type: functional
// NB: equality with 7 µM counts as Condition not met; only MIC90 strictly below is Condition met

Solved entries:
| compound | category |
| --- | --- |
| CCOc1cc(OCC)c(C(=O)C(C)C)cc1C(=O)Nc1cccc2c1CCN(C)C2 | Condition not met |
| CN(Cc1ccccc1)c1ncc(-c2ccc(CNCC3CCCO3)cc2)cn1 (stereo unspecified) | Condition not met |
| O=c1c2sc(-c3ccc(Cl)cc3)cc2ncn1-c1ccc2c(c1)OC[C@H](CN1CCCC1)O2 | Condition met |
| Cc1ccc2c(OC3CCNCC3)cccc2n1 | Condition met |

# ---- query compound ----
Lookup: Problem: For the compound Cc1ccc(C)c(-c2nnc(NC(=O)c3ccc(Br)s3)o2)c1 , is MIC90 under 7 µM?
Found: Condition met

====

system: Mycobacterium tuberculosis variant bovis BCG; test: microbe, parasite or virus in culture; type: functional
// NB: equality with 6 µM counts as 0.0; only MIC90 strictly below is 1.0

Solved entries:
| compound | subject of test | category |
| --- | --- | --- |
| O=C(CSc1nnc(-c2ccccc2)o1)Nc1nc(-c2ccccn2)cs1 | Mycobacterium tuberculosis variant bovis BCG | 0.0 |
| O=C(NC1CCN(Cc2ccsc2)C1)c1sccc1-c1cccc(Cl)c1 (stereo unspecified) | Mycobacterium tuberculosis variant bovis BCG | 0.0 |
| Cc1ccc(C(=O)N2N=C(C(F)(F)F)CC2(O)c2ccncc2)cc1 (stereo unspecified) | Mycobacterium tuberculosis variant bovis BCG | 1.0 |
| Cc1ccc(N2C(=O)NC(=O)C(=Cc3ccc[nH]3)C2=O)cc1 | Mycobacterium tuberculosis variant bovis BCG | 0.0 |
| Cc1nc2ccccn2c1C(=O)NCc1ccc(Cl)cc1 | Mycobacterium tuberculosis variant bovis BCG | 1.0 |

Lookup: Problem: For the compound CCCCOc1ccc(S(=O)(=O)NCCCn2nc(Cl)c(N3CCCNCC3)cc2=O)cc1 , is MIC90 under 6 µM?
Found: 1.0

Lookup: Problem: For the compound CC(c1nc2ccccc2s1)N(C)C(=O)c1cccc(-n2cnnn2)c1 (stereo unspecified) , is MIC90 under 6 µM?
Found: 1.0

Lookup: Problem: For the compound COc1cccc(Nc2cc(C(C)(C)C)nc(-c3ccccn3)n2)c1 , is MIC90 under 6 µM?
Found: 1.0

Lookup: Problem: For the compound O=C(Nc1cccc(C(=O)N2CCCC2c2nc3ccccc3s2)c1)c1cccs1 (stereo unspecified) , is MIC90 under 6 µM?
Found: 0.0

Lookup: Problem: For the compound COc1ccc(-c2cccc(NC(=O)NC3CCCCC3)c2)cn1 , is MIC90 under 6 µM?
Found: 0.0

====

test system: Mycobacterium tuberculosis variant bovis BCG; test: microbe, parasite or virus in culture; assay type: functional
attribute measured: MIC90 (µM)
Kindly answer with a numeric value in µM, unit omitted.

Worked examples follow.
| molecule | unit abbrev | MIC90 |
| --- | --- | --- |
| CSc1nc2ccccc2n1-c1nccc(N2CCN(CCN)CC2)n1 | µM | 9.9 |
| Cc1ccc(-c2nnc3sc(Cc4cccs4)nn23)cc1 | µM | 5.5 |
| CN1CC[C@@H](Oc2cc(-c3noc(-c4ccc(Br)s4)n3)ccc2C(F)(F)F)C1 | µM | 8.4 |
| O=C(C=Cc1ccccc1)N1CCN(Cc2ccc3c(c2)OCO3)CC1 | µM | 2.9 |
| Cc1nc(SCC(=O)Nc2sccc2C#N)n(Cc2ccc(Cl)cc2)c1C | µM | 8.1 |

# evaluate next
Lookup: # lookup: MIC90 of Cc1ccc2nc(NC(=O)c3cc(C)nc4c3c(C)nn4C(C)C)sc2c1
Found: 7.6

Provenance of the data: ChEMBL document CHEMBL2095176
